# pIC50 values compiled below
- system.name: Tumour suppressor p53/oncoprotein Mdm2 (Homo sapiens)
- Sequence (P04637 whole entry): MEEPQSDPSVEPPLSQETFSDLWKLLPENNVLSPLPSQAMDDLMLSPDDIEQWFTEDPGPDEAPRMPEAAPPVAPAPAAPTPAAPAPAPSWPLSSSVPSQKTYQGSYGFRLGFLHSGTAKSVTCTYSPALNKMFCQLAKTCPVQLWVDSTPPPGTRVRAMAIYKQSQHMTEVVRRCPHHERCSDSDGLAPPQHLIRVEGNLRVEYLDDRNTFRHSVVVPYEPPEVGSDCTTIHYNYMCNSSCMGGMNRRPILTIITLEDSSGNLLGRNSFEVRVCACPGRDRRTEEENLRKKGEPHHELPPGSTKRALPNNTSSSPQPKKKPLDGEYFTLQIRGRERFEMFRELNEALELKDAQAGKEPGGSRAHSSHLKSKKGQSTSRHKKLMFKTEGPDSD
- Sequence (Q00987 whole entry): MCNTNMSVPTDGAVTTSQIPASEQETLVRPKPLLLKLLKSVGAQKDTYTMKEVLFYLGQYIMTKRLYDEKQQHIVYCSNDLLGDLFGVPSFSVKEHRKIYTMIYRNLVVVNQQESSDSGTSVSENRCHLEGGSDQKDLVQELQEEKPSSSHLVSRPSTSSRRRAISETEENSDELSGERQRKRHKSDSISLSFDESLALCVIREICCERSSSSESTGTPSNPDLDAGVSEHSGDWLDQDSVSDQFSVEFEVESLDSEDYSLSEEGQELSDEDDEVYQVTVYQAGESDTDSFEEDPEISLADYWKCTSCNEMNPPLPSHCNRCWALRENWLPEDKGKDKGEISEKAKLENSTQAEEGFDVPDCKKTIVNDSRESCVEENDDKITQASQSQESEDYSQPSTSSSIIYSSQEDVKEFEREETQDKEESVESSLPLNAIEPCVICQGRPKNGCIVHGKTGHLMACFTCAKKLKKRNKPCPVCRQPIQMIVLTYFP
- assay: Inhibition of human MDM2-p53 interaction after 20 mins by […] method
pIC50 here: minus log base 10 of the concentration, concentration in moles per litre.

Answered examples (3):
[[record]]
molecule = "CCCN1C(=O)C(C)=C(C)C1(OCC1(CO)CC1)c1ccc(Cl)cc1 (centres undefined)"
reported_endpoint = "pIC50"
meas_value = 5.05

[[record]]
molecule = "CC1=C(C)C(OCC2(CO)CC2)(c2ccc(Cl)cc2)N(Cc2ccccc2)C1=O (centres undefined)"
reported_endpoint = "pIC50"
meas_value = 5.46

[[record]]
molecule = "O=C1c2cccc(Cl)c2C(OCC2(CO)CC2)(c2ccc(Cl)cc2)N1Cc1ccc(S(=O)(=O)C(F)(F)F)cc1 (centres undefined)"
reported_endpoint = "pIC50"
meas_value = 5.05


For the molecule shown here, O=C1C2=C(CCCC2)C(OCC2(CO)CC2)(c2ccc(Cl)cc2)N1Cc1ccc([N+](=O)[O-])cc1 (centres undefined) , give the reported pIC50.
5.46
